system: sole of the rat paws; assay: Measurement of skin lesion (erythema) on rat paw; format: in vivo, Sprague Dawley rats; conditions: bile acid single composition 2.5% (w/v);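 also: grades − to ++++ mean no to extremely severe erythema versus before injection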
ASSAY_ENDPOINT: grade of skin lesion (erythema), Immediately after administration

Look over these answered cases.
| COMPOUND | OBS_VALUE |
| --- | --- |
| C[C@H](CCC(=O)NCCS(=O)(=O)O)[C@H]1CC[C@H]2C3CC[C@@H]4C[C@H](O)CC[C@]4(C)[C@H]3C[C@H](O)[C@]12C (some centres unmarked) [TDCA] | ++ |
| C[C@H](CCC(=O)O)[C@H]1CC[C@H]2[C@@H]3CC[C@@H]4C[C@H](O)CC[C@]4(C)[C@H]3C[C@H](O)[C@]12C [DCA] | ++ |
| C[C@H](CCC(=O)O)[C@H]1CC[C@H]2[C@@H]3C[C@H](O)[C@@H]4C[C@H](O)CC[C@]4(C)[C@H]3CC[C@]12C [HDCA] | + |
| C[C@H](CCC(=O)O)[C@H]1CC[C@H]2[C@@H]3[C@@H](O)C[C@@H]4C[C@H](O)CC[C@]4(C)[C@H]3CC[C@]12C [UDCA] | ++ |
| C[C@H](CCC(=O)NCC(=O)O)[C@H]1CC[C@H]2[C@@H]3CCC4C[C@H](O)CC[C@]4(C)[C@H]3C[C@H](O)[C@]12C (some centres unmarked) [GDCA] | ++ |
| C[C@H](CCC(=O)O)[C@H]1CC[C@H]2[C@@H]3[C@H](O)C[C@@H]4C[C@H](O)CC[C@]4(C)[C@H]3CC[C@]12C [CDCA] | ++ |
| C[C@H](CCC(=O)NCC(=O)O)[C@H]1CC[C@H]2[C@@H]3[C@H](O)C[C@@H]4C[C@H](O)CC[C@]4(C)[C@H]3C[C@H](O)[C@]12C [GCA] | + |

Kindly review the next compound as well.
Quick one: give measured grade of skin lesion (erythema), Immediately after administration for C[C@H](CCC(=O)NCCS(=O)(=O)O)[C@H]1CC[C@H]2[C@@H]3[C@@H](O)C[C@@H]4C[C@H](O)CC[C@]4(C)[C@H]3CC[C@]12C [TUDCA] −

----------
system: sole of the rat paws; experiment: Measurement of skin lesion (erythema) on rat paw; format: in vivo, Sprague Dawley rats; conditions: bile acid single composition 7.5% (w/v);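 also: grades − to ++++ mean no to extremely severe erythema versus before injection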
ASSAY_ENDPOINT: grade of skin lesion (erythema), 2 hours after administration

| MOLECULE | OBS_VALUE |
| --- | --- |
| C[C@H](CCC(=O)NCC(=O)O)[C@H]1CC[C@H]2[C@@H]3CCC4C[C@H](O)CC[C@]4(C)[C@H]3C[C@H](O)[C@]12C (stereo partly drawn) | ++++ |
| C[C@H](CCC(=O)NCCS(=O)(=O)O)[C@H]1CC[C@H]2C3CC[C@@H]4C[C@H](O)CC[C@]4(C)[C@H]3C[C@H](O)[C@]12C (stereo partly drawn) | ++++ |
| C[C@H](CCC(=O)O)[C@H]1CC[C@H]2[C@@H]3[C@H](O)C[C@@H]4C[C@H](O)CC[C@]4(C)[C@H]3CC[C@]12C | ++++ |

----------
test system: sole of the rat paws; assay: Measurement of skin lesion (erythema) on rat paw; type: in vivo, Sprague Dawley rats; details: bile acid single composition 2.5% (w/v);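 also: grades − to ++++ mean no to extremely severe erythema versus before injection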
ASSAY_ENDPOINT: grade of skin lesion (erythema), 2 hours after administration

Look over these answered cases.
| MOLECULE | OBS_VALUE |
| --- | --- |
| C[C@H](CCC(=O)O)[C@H]1CC[C@H]2[C@@H]3[C@H](O)C[C@@H]4C[C@H](O)CC[C@]4(C)[C@H]3CC[C@]12C [CDCA] | ++++ |
| C[C@H](CCC(=O)NCC(=O)O)[C@H]1CC[C@H]2[C@@H]3CCC4C[C@H](O)CC[C@]4(C)[C@H]3C[C@H](O)[C@]12C (stereo partly drawn) [GDCA] | ++++ |
| C[C@H](CCC(=O)NCC(=O)O)[C@H]1CC[C@H]2[C@@H]3[C@H](O)C[C@@H]4C[C@H](O)CC[C@]4(C)[C@H]3C[C@H](O)[C@]12C [GCA] | + |
| C[C@H](CCC(=O)NCCS(=O)(=O)O)[C@H]1CC[C@H]2[C@@H]3[C@@H](O)C[C@@H]4C[C@H](O)CC[C@]4(C)[C@H]3CC[C@]12C [TUDCA] | − |
| C[C@H](CCC(=O)NCCS(=O)(=O)O)[C@H]1CC[C@H]2[C@@H]3[C@H](O)C[C@@H]4C[C@H](O)CC[C@]4(C)[C@H]3C[C@H](O)[C@]12C [TCA] | + |
| C[C@H](CCC(=O)NCCS(=O)(=O)O)[C@H]1CC[C@H]2C3CC[C@@H]4C[C@H](O)CC[C@]4(C)[C@H]3C[C@H](O)[C@]12C (stereo partly drawn) [TDCA] | +++ |

Report its grade of skin lesion (erythema), 2 hours after administration with sole of the rat paws as the test system: C[C@H](CCC(=O)O)[C@H]1CC[C@H]2[C@@H]3CC[C@@H]4C[C@H](O)CC[C@]4(C)[C@H]3C[C@H](O)[C@]12C [DCA] +++

Report its grade of skin lesion (erythema), 2 hours after administration with sole of the rat paws as the test system: C[C@H](CCC(=O)O)[C@H]1CC[C@H]2[C@@H]3[C@@H](O)C[C@@H]4C[C@H](O)CC[C@]4(C)[C@H]3CC[C@]12C [UDCA] +++

Report its grade of skin lesion (erythema), 2 hours after administration with sole of the rat paws as the test system: C[C@H](CCC(=O)O)[C@H]1CC[C@H]2[C@@H]3C[C@H](O)[C@@H]4C[C@H](O)CC[C@]4(C)[C@H]3CC[C@]12C [HDCA] +++

----------
tested on: tissues of the injected area (rat paw); experiment: H&E staining histological test (inflammation) of injected rat paw; format: in vivo, Sprague Dawley rats; settings: bile acid single composition 5.0% (w/v), injected rat paw
ASSAY_ENDPOINT: Inflammation (H&E), BA % (w/v) 5.0

| SMILES_RECORD | SUBJECT_OF_TEST | OBS_VALUE |
| --- | --- | --- |
| C[C@H](CCC(=O)NCCS(=O)(=O)O)[C@H]1CC[C@H]2[C@@H]3[C@@H](O)C[C@@H]4C[C@H](O)CC[C@]4(C)[C@H]3CC[C@]12C | tissues of the injected area (rat paw) | − |
| C[C@H](CCC(=O)NCC(=O)O)[C@H]1CC[C@H]2[C@@H]3[C@H](O)C[C@@H]4C[C@H](O)CC[C@]4(C)[C@H]3C[C@H](O)[C@]12C | tissues of the injected area (rat paw) | ++ |
| C[C@H](CCC(=O)O)[C@H]1CC[C@H]2[C@@H]3[C@H](O)C[C@@H]4C[C@H](O)CC[C@]4(C)[C@H]3CC[C@]12C | tissues of the injected area (rat paw) | +++ |
| C[C@H](CCC(=O)NCCS(=O)(=O)O)[C@H]1CC[C@H]2[C@@H]3[C@H](O)C[C@@H]4C[C@H](O)CC[C@]4(C)[C@H]3C[C@H](O)[C@]12C | tissues of the injected area (rat paw) | ++ |

----------
system: sole of the rat paws; assay: Measurement of skin lesion (erythema) on rat paw; type: in vivo, Sprague Dawley rats; conditions: bile acid single composition 5.0% (w/v);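 also: grades − to ++++ mean no to extremely severe erythema versus before injection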
ASSAY_ENDPOINT: grade of skin lesion (erythema), 2 hours after administration

Look over these answered cases.
| COMPOUND | OBS_VALUE |
| --- | --- |
| C[C@H](CCC(=O)NCC(=O)O)[C@H]1CC[C@H]2[C@@H]3CCC4C[C@H](O)CC[C@]4(C)[C@H]3C[C@H](O)[C@]12C (stereo partly drawn) [GDCA] | ++++ |
| C[C@H](CCC(=O)NCCS(=O)(=O)O)[C@H]1CC[C@H]2[C@@H]3[C@@H](O)C[C@@H]4C[C@H](O)CC[C@]4(C)[C@H]3CC[C@]12C [TUDCA] | − |
| C[C@H](CCC(=O)NCCS(=O)(=O)O)[C@H]1CC[C@H]2[C@@H]3[C@H](O)C[C@@H]4C[C@H](O)CC[C@]4(C)[C@H]3C[C@H](O)[C@]12C [TCA] | + |
| C[C@H](CCC(=O)NCC(=O)O)[C@H]1CC[C@H]2[C@@H]3[C@H](O)C[C@@H]4C[C@H](O)CC[C@]4(C)[C@H]3C[C@H](O)[C@]12C [GCA] | + |

Quick one: give measured grade of skin lesion (erythema), 2 hours after administration for C[C@H](CCC(=O)O)[C@H]1CC[C@H]2[C@@H]3[C@@H](O)C[C@@H]4C[C@H](O)CC[C@]4(C)[C@H]3CC[C@]12C [UDCA] ++++

Quick one: give measured grade of skin lesion (erythema), 2 hours after administration for C[C@H](CCC(=O)O)[C@H]1CC[C@H]2[C@@H]3[C@H](O)C[C@@H]4C[C@H](O)CC[C@]4(C)[C@H]3CC[C@]12C [CDCA] ++++
